Reported pIC50 is given for each of the following compounds.
target: Prostaglandin D2 receptor 2 (Homo sapiens, UniProt Q9Y5Y4); test: Displacement of [3H]-PGD2 from human CRTH2 expressed in HEK293 cells in buffer solution with 0.5% bovine serum albumin by scintillation counting; format: cell-based
Sequence (Q9Y5Y4 whole entry): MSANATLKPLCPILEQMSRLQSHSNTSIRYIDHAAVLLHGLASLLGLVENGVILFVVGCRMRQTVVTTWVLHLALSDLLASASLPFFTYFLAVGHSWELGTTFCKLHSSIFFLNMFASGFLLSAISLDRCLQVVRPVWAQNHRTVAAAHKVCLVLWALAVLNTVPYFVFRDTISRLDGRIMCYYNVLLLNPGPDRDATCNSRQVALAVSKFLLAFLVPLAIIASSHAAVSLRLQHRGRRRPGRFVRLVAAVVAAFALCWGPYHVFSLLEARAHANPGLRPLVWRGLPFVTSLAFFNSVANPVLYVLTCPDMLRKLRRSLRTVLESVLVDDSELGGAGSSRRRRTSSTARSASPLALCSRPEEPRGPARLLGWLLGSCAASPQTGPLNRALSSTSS
// field semantics: pIC50 = negative decimal log of concentration (mol/L)

Guide cases for pIC50, answers given:
smiles code | observed result
COc1cc(CC(=O)O)ccc1Oc1ccc2c(cc(C)n2C)c1NS(=O)(=O)c1ccc(Cl)cc1Cl | 7.66
COc1cc(CC(=O)O)ccc1Oc1ccc2[nH]c(CC(C)C)cc2c1NS(=O)(=O)c1ccc(Cl)cc1Cl | 7.49
COc1cc(CC(=O)O)ccc1Oc1ccc2[nH]c(C3CC3)cc2c1NS(=O)(=O)c1ccc(Cl)cc1Cl | 8.10
COc1cc(CC(=O)O)ccc1Oc1ccc2c(c1NS(=O)(=O)c1ccc(Cl)cc1Cl)CC(=O)N2 | 8.52
COc1cc(CC(=O)O)ccc1Oc1ccc2[nH]c(C)c(Cl)c2c1NS(=O)(=O)c1ccc(Cl)cc1Cl | 6.66
COc1cc(CC(=O)O)ccc1Oc1ccc2[nH]c(C(C)(C)C)cc2c1NS(=O)(=O)c1ccc(Cl)cc1Cl | 7.49
COc1cc(CC(=O)O)ccc1Oc1ccc2[nH]c(C#N)cc2c1NS(=O)(=O)c1ccc(Cl)cc1Cl | 7.57

Read the next record carefully.
query: What measured pIC50 goes with "CCCc1cc2c(NS(=O)(=O)c3ccc(Cl)cc3Cl)c(Oc3ccc(CC(=O)O)cc3OC)ccc2[nH]1" ?
result: 7.24

====

molecular target: CYP3A4 (Homo sapiens, UniProt P08684); experiment: Time dependent inhibition of human liver microsome CYP3A4 activity assessed as percentage remaining activity by measuring 6-beta-OH-testosterone formation at 15 uM for 15 mins using 200 uM testosterone as a substrate by LC/MS/MS analysis; assay type: ADME; conditions: liver microsomes, probe testosterone, read-out: Activity
Sequence (P08684 whole entry): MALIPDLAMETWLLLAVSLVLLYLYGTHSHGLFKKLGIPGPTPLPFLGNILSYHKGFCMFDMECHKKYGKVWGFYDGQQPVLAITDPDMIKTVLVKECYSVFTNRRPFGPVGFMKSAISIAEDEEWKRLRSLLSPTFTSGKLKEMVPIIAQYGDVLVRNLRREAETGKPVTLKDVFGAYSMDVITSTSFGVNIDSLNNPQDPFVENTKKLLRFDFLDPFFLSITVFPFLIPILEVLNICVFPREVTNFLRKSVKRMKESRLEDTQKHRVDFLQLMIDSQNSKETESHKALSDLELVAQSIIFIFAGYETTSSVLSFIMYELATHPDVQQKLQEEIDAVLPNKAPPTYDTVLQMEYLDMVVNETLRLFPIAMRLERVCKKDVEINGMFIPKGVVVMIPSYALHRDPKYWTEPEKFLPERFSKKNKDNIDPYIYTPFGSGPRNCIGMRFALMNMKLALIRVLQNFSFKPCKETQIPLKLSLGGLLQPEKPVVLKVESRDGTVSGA
measured metric: activity at 0.25 h, 15 µM (%)
Only the number, expressed in %, is required.

Guide cases for activity at 0.25 h, 15 µM, answers given:
smiles code | value units | activity at 0.25 h, 15 µM
CCCc1cc2c(NS(=O)(=O)c3ccc(Cl)cc3Cl)c(Oc3ccc(CC(=O)O)cc3OC)ccc2[nH]1 | % | 79
COc1cc(CC(=O)O)ccc1Oc1ccc2c(cc(C)n2C)c1NS(=O)(=O)c1ccc(Cl)cc1Cl | % | 28

query: Give recorded activity at 0.25 h, 15 µM with CYP3A4 (Homo sapiens, UniProt P08684) for the following molecule: "COc1cc(CC(=O)O)ccc1Oc1ccc2[nH]c(C3CC3)cc2c1NS(=O)(=O)c1ccc(Cl)cc1Cl"
result: 41

query: Give recorded activity at 0.25 h, 15 µM with CYP3A4 (Homo sapiens, UniProt P08684) for the following molecule: "COc1cc(CC(=O)O)ccc1Oc1ccc2c(c1NS(=O)(=O)c1ccc(Cl)cc1Cl)CC(=O)N2"
result: 103

====

molecular target: Prostaglandin D2 receptor (Homo sapiens); experiment: Displacement of [3H]-PGD2 from human DP receptor expressed in HEK293 cells in presence of 50% human plasma by scintillation counting; assay type: cell-based
Reported pIC50 is given for each of the following compounds.
// field semantics: pIC50 = negative decimal log of concentration (mol/L)

Guide cases for pIC50, answers given:
smiles code | pIC50
COc1cc(CC(=O)O)ccc1Oc1ccc2[nH]c(C#N)cc2c1NS(=O)(=O)c1ccc(Cl)cc1Cl | 6.89
COc1cc(CC(=O)O)ccc1Oc1ccc2c(cc(C)n2C)c1NS(=O)(=O)c1ccc(Cl)cc1Cl | 7.12
COc1cc(CC(=O)O)ccc1Oc1ccc2[nH]c(CC(C)C)cc2c1NS(=O)(=O)c1ccc(Cl)cc1Cl | 6.96

query: What measured pIC50 goes with "COc1cc(CC(=O)O)ccc1Oc1ccc2c(c1NS(=O)(=O)c1ccc(Cl)cc1Cl)CC(=O)N2" ?
result: 5.89

query: What measured pIC50 goes with "CCCc1cc2c(NS(=O)(=O)c3ccc(Cl)cc3Cl)c(Oc3ccc(CC(=O)O)cc3OC)ccc2[nH]1" ?
result: 6.89

query: What measured pIC50 goes with "COc1cc(CC(=O)O)ccc1Oc1ccc2[nH]c(C3CC3)cc2c1NS(=O)(=O)c1ccc(Cl)cc1Cl" ?
result: 6.46

====

target: CYP3A4 (Homo sapiens, UniProt P08684); experiment: Time dependent inhibition of human liver microsome CYP3A4 activity assessed as percentage remaining activity by measuring 6-beta-OH-testosterone formation at 15 uM for 15 mins using 200 uM testosterone as a substrate by LC/MS/MS analysis; type: ADME; details: liver microsomes, probe testosterone, read-out: Activity
measured metric: activity at 0.25 h, 15 µM (%)
Only the number, expressed in %, is required.

smiles code | value units | observed result
COc1cc(CC(=O)O)ccc1Oc1ccc2[nH]c(C#N)cc2c1NS(=O)(=O)c1ccc(Cl)cc1Cl | % | 73
COc1cc(CC(=O)O)ccc1Oc1ccc2[nH]c(C)c(Cl)c2c1NS(=O)(=O)c1ccc(Cl)cc1Cl | % | 87
COc1cc(CC(=O)O)ccc1Oc1ccc2[nH]c(CC(C)C)cc2c1NS(=O)(=O)c1ccc(Cl)cc1Cl | % | 38

query: What measured activity at 0.25 h, 15 µM goes with "COc1cc(CC(=O)O)ccc1Oc1ccc2[nH]c(C(C)(C)C)cc2c1NS(=O)(=O)c1ccc(Cl)cc1Cl" ?
result: 81

====

target: Prostaglandin D2 receptor (Homo sapiens, UniProt Q13258); assay: Displacement of [3H]-PGD2 from human DP receptor expressed in HEK293 cells in buffer solution with 0.5% bovine serum albumin by scintillation counting; assay type: cell-based
Sequence (Q13258 whole entry): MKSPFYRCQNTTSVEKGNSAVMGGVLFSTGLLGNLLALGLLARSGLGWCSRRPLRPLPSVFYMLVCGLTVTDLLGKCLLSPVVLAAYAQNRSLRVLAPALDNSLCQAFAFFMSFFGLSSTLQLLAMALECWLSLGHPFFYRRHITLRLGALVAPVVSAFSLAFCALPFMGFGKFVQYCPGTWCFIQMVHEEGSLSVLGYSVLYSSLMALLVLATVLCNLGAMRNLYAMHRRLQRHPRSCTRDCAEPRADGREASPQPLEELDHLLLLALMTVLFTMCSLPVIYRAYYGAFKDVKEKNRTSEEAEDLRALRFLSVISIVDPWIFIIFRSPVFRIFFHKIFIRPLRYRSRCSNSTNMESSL
measured metric: pIC50
// field semantics: pIC50 = negative decimal log of concentration (mol/L)

Guide cases for pIC50, answers given:
smiles code | pIC50
COc1cc(CC(=O)O)ccc1Oc1ccc2[nH]c(C)c(Cl)c2c1NS(=O)(=O)c1ccc(Cl)cc1Cl | 5.96
COc1cc(CC(=O)O)ccc1Oc1ccc2[nH]c(C3CC3)cc2c1NS(=O)(=O)c1ccc(Cl)cc1Cl | 7.13
COc1cc(CC(=O)O)ccc1Oc1ccc2[nH]c(C#N)cc2c1NS(=O)(=O)c1ccc(Cl)cc1Cl | 7.09

Read the next record carefully.
query: What measured pIC50 goes with "CCCc1cc2c(NS(=O)(=O)c3ccc(Cl)cc3Cl)c(Oc3ccc(CC(=O)O)cc3OC)ccc2[nH]1" ?
result: 7.35

====

Reported IC50 is given for each of the following molecules.
target: Prostaglandin D2 receptor (Homo sapiens, UniProt Q13258); test: Displacement of [3H]-PGD2 from human DP receptor expressed in HEK293 cells in buffer solution with 0.5% bovine serum albumin by scintillation counting; format: cell-based

Guide cases for IC50, answers given:
smiles code | tested target | IC50
COc1cc(CC(=O)O)ccc1Oc1ccc2c(cc(C)n2C)c1NS(=O)(=O)c1ccc(Cl)cc1Cl | Prostaglandin D2 receptor (Homo sapiens, UniProt Q13258) | 27 nM
COc1cc(CC(=O)O)ccc1Oc1ccc2[nH]c(C(C)(C)C)cc2c1NS(=O)(=O)c1ccc(Cl)cc1Cl | Prostaglandin D2 receptor (Homo sapiens, UniProt Q13258) | 8400 nM
COc1cc(CC(=O)O)ccc1Oc1ccc2[nH]c(CC(C)C)cc2c1NS(=O)(=O)c1ccc(Cl)cc1Cl | Prostaglandin D2 receptor (Homo sapiens, UniProt Q13258) | 62 nM

Read the next record carefully.
query: What measured IC50 goes with "COc1cc(CC(=O)O)ccc1Oc1ccc2c(c1NS(=O)(=O)c1ccc(Cl)cc1Cl)CC(=O)N2" ?
result: 17 nM

====

biological target: Prostaglandin D2 receptor 2 (Homo sapiens); assay: Displacement of [3H]-PGD2 from human CRTH2 expressed in HEK293 cells in presence of 50% human plasma by scintillation counting; format: cell-based
Reported pIC50 is given for each of the following compounds.
// field semantics: pIC50 = negative decimal log of concentration (mol/L)

Guide cases for pIC50, answers given:
smiles code | pIC50
COc1cc(CC(=O)O)ccc1Oc1ccc2[nH]c(C3CC3)cc2c1NS(=O)(=O)c1ccc(Cl)cc1Cl | 7.60
COc1cc(CC(=O)O)ccc1Oc1ccc2[nH]c(C#N)cc2c1NS(=O)(=O)c1ccc(Cl)cc1Cl | 6.89
COc1cc(CC(=O)O)ccc1Oc1ccc2c(c1NS(=O)(=O)c1ccc(Cl)cc1Cl)CC(=O)N2 | 7.51
CCCc1cc2c(NS(=O)(=O)c3ccc(Cl)cc3Cl)c(Oc3ccc(CC(=O)O)cc3OC)ccc2[nH]1 | 6.96
COc1cc(CC(=O)O)ccc1Oc1ccc2c(cc(C)n2C)c1NS(=O)(=O)c1ccc(Cl)cc1Cl | 7.25

Read the next record carefully.
query: What measured pIC50 goes with "COc1cc(CC(=O)O)ccc1Oc1ccc2[nH]c(CC(C)C)cc2c1NS(=O)(=O)c1ccc(Cl)cc1Cl" ?
result: 7.32
